Values from patent US20060252807A1

Target: active p38 alpha enzyme (Upstate Biotechnology) (Homo sapiens, UniProt Q16539)
Construct: purchased Upstate Biotechnology
Sequence (Q16539 whole entry): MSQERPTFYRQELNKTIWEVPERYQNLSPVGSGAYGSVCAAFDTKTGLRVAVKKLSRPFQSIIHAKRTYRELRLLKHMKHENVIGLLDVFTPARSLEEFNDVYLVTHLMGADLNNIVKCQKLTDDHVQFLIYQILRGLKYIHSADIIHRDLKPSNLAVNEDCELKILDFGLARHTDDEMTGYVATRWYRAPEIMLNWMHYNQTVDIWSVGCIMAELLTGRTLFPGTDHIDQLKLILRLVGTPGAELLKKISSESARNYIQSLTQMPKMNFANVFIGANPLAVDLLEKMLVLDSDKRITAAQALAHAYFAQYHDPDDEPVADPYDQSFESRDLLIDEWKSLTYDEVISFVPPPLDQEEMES
Assay: p38α biochemical assay (ATP turnover, luminescent detection, Cambrex PKlight)
Settings: p38α kinase; Table 1 Biological Activity
experimental-endpoint: IC50

Request: Consider the compound Cc1ccc([C@@H](C)NCc2nc(-c3ccc(F)cc3)c(-c3nc(C(=O)NC(C)C)cs3)o2)cc1 and give its measured IC50.
Result: > 1 µM

Request: For CC(C)NC(=O)c1csc(-c2c(-c3ccc(F)cc3)n[nH]c2C2CCN(C(=O)c3cncc(Br)c3)CC2)n1 then?
Result: ≤ 1 µM

Request: For Cc1ccc(CNC(=O)c2csc(-c3c(-c4ccc(F)cc4)n[nH]c3C3CCNCC3)n2)cc1C then?
Result: > 1 µM

Request: For COCCNC(=O)c1csc(-c2c(-c3ccc(F)cc3)n[nH]c2C2CCNCC2)n1 then?
Result: ≤ 1 µM

Request: For CC(C)NC(=O)c1csc(-c2oc(CNCc3ccc(C(C)(C)C)cc3)nc2-c2ccc(F)cc2)n1 then?
Result: > 1 µM

Request: For CC(C)NC(=O)c1csc(-c2c(-c3ccc(F)cc3)n[nH]c2C2CCN(C(=O)c3ncc[nH]3)CC2)n1 then?
Result: ≤ 1 µM

Request: For C#CCN(C)Cc1nc(-c2ccc(F)cc2)c(-c2nc(C(=O)NC(C)C)cs2)o1 then?
Result: > 1 µM

Request: For O=C(NCCc1ccc(Cl)cc1)c1csc(-c2c(-c3ccc(F)cc3)n[nH]c2C2CCNCC2)n1 then?
Result: > 1 µM

Request: For CC(C)NC(=O)c1csc(-c2oc(CNc3ccccc3)nc2-c2ccc(F)cc2)n1 then?
Result: > 1 µM

Request: For CC(C)NC(=O)c1csc(-c2c(-c3ccc(F)cc3)n[nH]c2C2CCN(C(=O)C(C)c3cccc(C(=O)c4ccccc4)c3)CC2)n1 (stereo not drawn) then?
Result: > 1 µM

Request: For CC(C)NC(=O)c1csc(-c2c(-c3ccc(F)cc3)noc2CN2CCC(N(C)C(=O)OC(C)(C)C)C2)n1 (stereo not drawn) then?
Result: > 1 µM

Request: For CC(C)NC(=O)c1csc(-c2c(-c3ccc(F)cc3)noc2CNc2ccc(F)cc2C(F)(F)F)n1 then?
Result: > 1 µM

Request: For CC(C)NC(=O)c1csc(-c2oc(CN3CCC(Cc4ccccc4)CC3)nc2-c2ccc(F)cc2)n1 then?
Result: > 1 µM

Request: For CC(C)NC(=O)c1csc(-c2c(-c3ccc(F)cc3)n[nH]c2C2CCN(C(=O)C(Cc3ccccn3)NC(=O)OC(C)(C)C)CC2)n1 (stereo not drawn) then?
Result: > 1 µM

Request: For CC(C)NC(=O)c1csc(-c2oc(CNCC(C)c3ccccc3)nc2-c2ccc(F)cc2)n1 (stereo not drawn) [Example 1117] then?
Result: > 1 µM

---

Biological target: active p38 alpha enzyme (Upstate Biotechnology) (Homo sapiens)
Construct: purchased Upstate Biotechnology
Experiment: p38α biochemical assay (ATP turnover, luminescent detection, Cambrex PKlight)
Settings: p38α kinase; Table 1 Biological Activity
pIC50: −log10 of the molar value.
Measured pIC50, listed per entry.

molecule: CC(C)NC(=O)c1csc(-c2c(-c3ccc(Cl)cc3)ncn2C2CCNCC2)n1 [Example 2162]
pIC50: < 6.00

Request: Consider the molecule Cc1cccc(NCc2nc(-c3ccc(F)cc3)c(-c3nc(C(=O)NC(C)C)cs3)o2)c1C [Example 1321] and give its measured pIC50.
Result: < 6.00

Request: For CNC(=O)c1csc(-c2sc(C)nc2-c2ccc(F)cc2)n1 [Example 1705] then?
Result: ≥ 6.00

Request: For Cc1nc(-c2ccc(F)cc2)c(-c2nc(C(=O)NC(C)CO)cs2)s1 (stereo not shown) [Example 1719] then?
Result: ≥ 6.00

Request: For CC(C)NC(=O)c1csc(-c2oc(CNCc3cccc(F)c3)nc2-c2ccc(F)cc2)n1 [Example 1103] then?
Result: < 6.00

Request: For CC(C)NC(=O)c1csc(-c2c(-c3ccc(F)cc3)n[nH]c2C2CCN(C(=O)C(C)O)CC2)n1 (stereo not shown) [Example 815] then?
Result: ≥ 6.00
